Would you kindly list SGCB cell-surface expression functional score (log10) for each of these variants?
B1: library; numbered along this chain (parent)
chain: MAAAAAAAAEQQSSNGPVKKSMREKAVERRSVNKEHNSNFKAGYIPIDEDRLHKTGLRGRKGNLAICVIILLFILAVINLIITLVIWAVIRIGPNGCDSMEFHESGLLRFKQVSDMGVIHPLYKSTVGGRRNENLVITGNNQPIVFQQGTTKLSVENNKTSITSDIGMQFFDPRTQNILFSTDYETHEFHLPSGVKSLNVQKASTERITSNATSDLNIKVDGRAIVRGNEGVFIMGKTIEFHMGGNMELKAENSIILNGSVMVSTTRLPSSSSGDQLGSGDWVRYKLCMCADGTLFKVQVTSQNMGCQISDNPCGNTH

Variants of: B1
Assay: SGCB cell-surface expression functional score (HA stain, bin4 vs bin1, normalised to synonymous) (log10 ratio); higher = more cell-surface SGCB (functional)
Give the value as a plain number.

INPUT: Query: SGCB cell-surface expression functional score (log10); subject: E248Q
OUTPUT: -0.13

INPUT: Query: SGCB cell-surface expression functional score (log10); subject: T301Y
OUTPUT: 0.14

INPUT: Query: SGCB cell-surface expression functional score (log10); subject: T163V
OUTPUT: 0.25

INPUT: Query: SGCB cell-surface expression functional score (log10); subject: I234L
OUTPUT: 0.43

INPUT: Query: SGCB cell-surface expression functional score (log10); subject: L268S
OUTPUT: 0.48

INPUT: Query: SGCB cell-surface expression functional score (log10); subject: G129F
OUTPUT: -0.78

INPUT: Query: SGCB cell-surface expression functional score (log10); subject: I119H
OUTPUT: -1.49

INPUT: Query: SGCB cell-surface expression functional score (log10); subject: G222H
OUTPUT: 1.21

INPUT: Query: SGCB cell-surface expression functional score (log10); subject: M262Q
OUTPUT: 0.93

INPUT: Query: SGCB cell-surface expression functional score (log10); subject: L153A
OUTPUT: -1.08

INPUT: Query: SGCB cell-surface expression functional score (log10); subject: G117C
OUTPUT: -0.28

INPUT: Query: SGCB cell-surface expression functional score (log10); subject: D183E
OUTPUT: 0.35

INPUT: Query: SGCB cell-surface expression functional score (log10); subject: N134F
OUTPUT: -0.37

INPUT: Query: SGCB cell-surface expression functional score (log10); subject: K54T
OUTPUT: 0.27

INPUT: Query: SGCB cell-surface expression functional score (log10); subject: Q112V
OUTPUT: -0.18

INPUT: Query: SGCB cell-surface expression functional score (log10); subject: V145A
OUTPUT: -0.01

INPUT: Query: SGCB cell-surface expression functional score (log10); subject: F241Y
OUTPUT: -0.82

INPUT: Query: SGCB cell-surface expression functional score (log10); subject: D292G
OUTPUT: -0.42

INPUT: Query: SGCB cell-surface expression functional score (log10); subject: R58W
OUTPUT: -0.26

INPUT: Query: SGCB cell-surface expression functional score (log10); subject: V136L
OUTPUT: 0.17

INPUT: Query: SGCB cell-surface expression functional score (log10); subject: G244Q
OUTPUT: 0.86

INPUT: Query: SGCB cell-surface expression functional score (log10); subject: E206T
OUTPUT: 0.4

INPUT: Query: SGCB cell-surface expression functional score (log10); subject: A88W
OUTPUT: -0.36

INPUT: Query: SGCB cell-surface expression functional score (log10); subject: V27E
OUTPUT: 0.04

INPUT: Query: SGCB cell-surface expression functional score (log10); subject: A291D
OUTPUT: -0.71

INPUT: Query: SGCB cell-surface expression functional score (log10); subject: V85S
OUTPUT: -0.2

INPUT: Query: SGCB cell-surface expression functional score (log10); subject: K20M
OUTPUT: 0.39

INPUT: Query: SGCB cell-surface expression functional score (log10); subject: L198M
OUTPUT: -0.81

INPUT: Query: SGCB cell-surface expression functional score (log10); subject: G245Q
OUTPUT: 0.99

INPUT: Query: SGCB cell-surface expression functional score (log10); subject: I255G
OUTPUT: -1.03

INPUT: Query: SGCB cell-surface expression functional score (log10); subject: A6E
OUTPUT: -0.14

INPUT: Query: SGCB cell-surface expression functional score (log10); subject: M1H
OUTPUT: 0.01

INPUT: Query: SGCB cell-surface expression functional score (log10); subject: V195A
OUTPUT: 0.11

INPUT: Query: SGCB cell-surface expression functional score (log10); subject: N304G
OUTPUT: 0.09

INPUT: Query: SGCB cell-surface expression functional score (log10); subject: S254T
OUTPUT: 0.67

INPUT: Query: SGCB cell-surface expression functional score (log10); subject: Y285D
OUTPUT: -0.09

INPUT: Query: SGCB cell-surface expression functional score (log10); subject: S254N
OUTPUT: 0.66

INPUT: Query: SGCB cell-surface expression functional score (log10); subject: I86S
OUTPUT: -0.98

INPUT: Query: SGCB cell-surface expression functional score (log10); subject: G93C
OUTPUT: -1.43

INPUT: Query: SGCB cell-surface expression functional score (log10); subject: G129C
OUTPUT: -1.01

INPUT: Query: SGCB cell-surface expression functional score (log10); subject: T238L
OUTPUT: 0.67

INPUT: Query: SGCB cell-surface expression functional score (log10); subject: N37P
OUTPUT: -0.1

INPUT: Query: SGCB cell-surface expression functional score (log10); subject: L52S
OUTPUT: -0.1

INPUT: Query: SGCB cell-surface expression functional score (log10); subject: M1L
OUTPUT: -1.26

INPUT: Query: SGCB cell-surface expression functional score (log10); subject: H120V
OUTPUT: -0.04

INPUT: Query: SGCB cell-surface expression functional score (log10); subject: N33Y
OUTPUT: 0.04

INPUT: Query: SGCB cell-surface expression functional score (log10); subject: D281P
OUTPUT: -0.06

INPUT: Query: SGCB cell-surface expression functional score (log10); subject: G93D
OUTPUT: -0.19

INPUT: Query: SGCB cell-surface expression functional score (log10); subject: L71T
OUTPUT: 0.07

INPUT: Query: SGCB cell-surface expression functional score (log10); subject: I137K
OUTPUT: -1.21

INPUT: Query: SGCB cell-surface expression functional score (log10); subject: I70W
OUTPUT: 1.07

INPUT: Query: SGCB cell-surface expression functional score (log10); subject: V113C
OUTPUT: -0.61

INPUT: Query: SGCB cell-surface expression functional score (log10); subject: E188P
OUTPUT: -0.15

INPUT: Query: SGCB cell-surface expression functional score (log10); subject: D165I
OUTPUT: 0.19

INPUT: Query: SGCB cell-surface expression functional score (log10); subject: I166R
OUTPUT: -0.29

INPUT: Query: SGCB cell-surface expression functional score (log10); subject: G280A
OUTPUT: -0.01

INPUT: Query: SGCB cell-surface expression functional score (log10); subject: D215Y
OUTPUT: -0.46

INPUT: Query: SGCB cell-surface expression functional score (log10); subject: F73P
OUTPUT: 0.07

INPUT: Query: SGCB cell-surface expression functional score (log10); subject: V118W
OUTPUT: 0.32

INPUT: Query: SGCB cell-surface expression functional score (log10); subject: V68W
OUTPUT: 0.12

INPUT: Query: SGCB cell-surface expression functional score (log10); subject: M243T
OUTPUT: 0.83

INPUT: Query: SGCB cell-surface expression functional score (log10); subject: R91N
OUTPUT: -0.75

INPUT: Query: SGCB cell-surface expression functional score (log10); subject: D292W
OUTPUT: -2.02

INPUT: Query: SGCB cell-surface expression functional score (log10); subject: R23Q
OUTPUT: 0.33

INPUT: Query: SGCB cell-surface expression functional score (log10); subject: K237Y
OUTPUT: 0.48

INPUT: Query: SGCB cell-surface expression functional score (log10); subject: Q11S
OUTPUT: 0.39

INPUT: Query: SGCB cell-surface expression functional score (log10); subject: G306L
OUTPUT: -0.44

INPUT: Query: SGCB cell-surface expression functional score (log10); subject: L108M
OUTPUT: 0.07

INPUT: Query: SGCB cell-surface expression functional score (log10); subject: F146P
OUTPUT: -1.14

INPUT: Query: SGCB cell-surface expression functional score (log10); subject: S31R
OUTPUT: -0.03

INPUT: Query: SGCB cell-surface expression functional score (log10); subject: T175R
OUTPUT: 0.24

INPUT: Query: SGCB cell-surface expression functional score (log10); subject: P121S
OUTPUT: 0.12

INPUT: Query: SGCB cell-surface expression functional score (log10); subject: G129P
OUTPUT: 0.12

INPUT: Query: SGCB cell-surface expression functional score (log10); subject: I162D
OUTPUT: -1.31

INPUT: Query: SGCB cell-surface expression functional score (log10); subject: I78W
OUTPUT: 0.33

INPUT: Query: SGCB cell-surface expression functional score (log10); subject: I81C
OUTPUT: -0.06

INPUT: Query: SGCB cell-surface expression functional score (log10); subject: C97R
OUTPUT: -1.75

INPUT: Query: SGCB cell-surface expression functional score (log10); subject: E24I
OUTPUT: 0.08

INPUT: Query: SGCB cell-surface expression functional score (log10); subject: C290G
OUTPUT: -0.08
